# procedure-summary: inhibitors of TNFa-induced NFkB p65 translocation, primary screen, imaging, HUVEC, MLSMR starter and 10KST1 sets (AID 438);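 note: compound added about 3h40 before a 20 min TNFalpha stimulation; signal is the nuclear over cytoplasmic p65 intensity ratio per well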
# condition-description: HUVEC TNFa-induced p65 nuclear translocation; at 2 µM, hits give high values, 0% TNFa-plus-vehicle, 100% no-TNFa wells
measured-endpoint: inhibition (%)
Numbers only, in %.

O=C(OCC(=O)N1CCCC1)c1ccccc1OCc1ccccc1 = -10.8
Cc1cc(C)n(-c2cc(N3CCOCC3)ncn2)n1 = -9.8
CCOC(=O)C1=C(C)NC(=O)NC1c1ccc(OCCO)c(OC)c1 (stereo not drawn) = -12.8
Cn1c(N)c(C#N)c(C#N)c1-c1ccccc1 = -10.7
CCCCCNC(=O)C(C#N)c1nc2ccccc2nc1N1CC(C)OC(C)C1 (stereo not drawn) = -5.7
C=COC(=O)CSc1snc(SCC(=O)OC)c1C#N = -6.3

# return inhibition for each item in the list
1. CCCCN1C(=O)C(O)=C(C(C)=O)C1c1ccc(OC)cc1OC (stereo not drawn)
2. Cn1cc(C2NC(=O)c3c(sc4c3CCCC4)N2)c2ccccc21 (stereo not drawn)
3. CCc1nc2n[nH]c(N)c2c2c1CCCC2
4. c1ccc(-n2ncc3c(NCc4cccs4)ncnc32)cc1
5. Cc1cc(C)c2c(=O)n(CC(=O)NCCCN3CCN(c4ccccc4F)CC3)sc2n1

-4.2
9.2
-3
-5.7
-2.8

# return inhibition for each item in the list
1. Cc1cc(C)n(CC2CC(=O)N(c3ccc(F)c(Cl)c3)C2=O)n1 (stereo not drawn)
2. CCOc1ccc(-c2nnn(CCC(=O)O)n2)cc1OC
3. Cc1ccccc1-n1c(Cn2c(=O)sc3ccccc32)nnc1SCC(=O)N1CCCC1

[-0.7, 6.5, 8.7]
